Tested on: BRK
Construct: gene PTK6
Settings: concentration: 1 μM,replicates: in singlicate; n = 1;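 note: KINOMEscan kinase panel screen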
%Inh for assorted compounds
readout type: %Inh (%)

> print(dat)
                                    compound  endpoint.result
 1  CCN(CC)CCCCNc1ncc2cc(-c3c(Cl)cccc3Cl)c(NC(=O)NC(C)(C)C)nc2n1             95.9
 2  Nc1nc(Nc2ccccc2)cc(-c2ccc3c(N)n[nH]c3c2)n1                0
 3  CCn1c(-c2nonc2N)nc2c(C#CC(C)(C)O)nc(OCCN)cc21.Cl.Cl                1
 4  CN(C)CCOc1ccc(-c2cc(-c3c[nH]nc3-c3ccccn3)ccn2)cc1                9
 5  CN(C)CC(O)COc1ccc(Nc2nccc(-c3cnn4nc(N5CCOCC5)ccc34)n2)cc1 (centres unmarked)                0
 6  Cl.Cl.Nc1nc(-c2ccc3c(N)n[nH]c3c2)cc(N2CCCC(NC(=O)c3ccccc3)C2)n1 (centres unmarked)                3
 7  C[C@@H](Oc1cc(-c2cnn(C3CCNCC3)c2)cnc1N)c1c(Cl)ccc(F)c1Cl               16
 8   CC(C)Nc1cc(-c2ccc3c(N)n[nH]c3c2)nc(N)n1               14
 9  Cc1cc(C(=O)Nc2ccc(Oc3ccc4nc(NC(=O)C5CC5)cn4n3)cc2)nn1-c1ccccc1               75
10  C[C@@H]1CCN(C(=O)CC#N)C[C@@H]1N(C)c1ncnc2[nH]ccc12                0
11  CC(C)N1C(=O)Cc2cc(Nc3ncc(C(F)(F)F)c(NCc4cccc(S(C)(=O)=O)c4)n3)ccc21                0
12  COc1ccc(C[C@@H](CN)NC(=O)c2cc(Br)c(-c3ccnc4[nH]ccc34)s2)cc1.Cl.Cl                0
13  Cc1n[nH]c2ccc(-c3cc(OC[C@@H](N)Cc4ccccc4)cnc3-c3ccoc3)cc12.O=C(O)C(F)(F)F.O=C(O)C(F)(F)F                0
14  CCN(CC)CCOc1ccc(Nc2ncc3cc(-c4c(Cl)cccc4Cl)c(=O)n(C)c3n2)cc1             99.9
15  CNC(=O)c1ccccc1Sc1ccc2c(/C=C/c3ccccn3)n[nH]c2c1                5
16  Cl.Cl.NC[C@H](Cc1ccc(C(F)(F)F)cc1)NC(=O)c1cc(Br)c(-c2ccnc3[nH]ccc23)s1                9
17  Cc1occc1-c1nc(N)c(OC[C@@H](N)Cc2c[nH]c3ccccc23)cc1-c1cc2c(C)n[nH]c2cn1                3

---

Test system: NEK7
Conditions: concentration: 1 μM,replicates: in singlicate; n = 1
Checkbox rule: %Inh lower than 8% = criterion met; %Inh not lower than 8% = criterion not met.

> print(dat)
                                   molecule                cat
1  C[C@H]1Oc2cc(cnc2N)-c2c(nn(C)c2C#N)CN(C)C(=O)c2ccc(F)cc21  criterion not met
2  Cc1n[nH]c2ccc(-c3cc(OC[C@@H](N)Cc4ccccc4)cnc3-c3ccoc3)cc12.O=C(O)C(F)(F)F.O=C(O)C(F)(F)F [GSK507358]  criterion not met
3  Nc1nc(Nc2ccccc2)cc(-c2ccc3c(N)n[nH]c3c2)n1 [GSK2225749]      criterion met
4  Cl.Oc1cc(-c2nc(-c3ccccc3)[nH]c2-c2ccncc2)ccc1Cl [SB-386023]  criterion not met
5  Cc1ccc2c(-c3ccncc3)c(-c3ccc(F)cc3)nn2c1.Cl [GW461484]      criterion met
6  Cc1cc(C(=O)Nc2ccc(Oc3ccc4nc(NC(=O)C5CC5)cn4n3)cc2)nn1-c1ccccc1      criterion met
7  Cc1cc2cn[nH]c2cc1-c1cccc2c(N)c(C(N)=O)nnc12      criterion met
